# target or test system: MDR1 (P-gp) (Homo sapiens (Human), UniProt P08183)
# Sequence (P08183 whole entry): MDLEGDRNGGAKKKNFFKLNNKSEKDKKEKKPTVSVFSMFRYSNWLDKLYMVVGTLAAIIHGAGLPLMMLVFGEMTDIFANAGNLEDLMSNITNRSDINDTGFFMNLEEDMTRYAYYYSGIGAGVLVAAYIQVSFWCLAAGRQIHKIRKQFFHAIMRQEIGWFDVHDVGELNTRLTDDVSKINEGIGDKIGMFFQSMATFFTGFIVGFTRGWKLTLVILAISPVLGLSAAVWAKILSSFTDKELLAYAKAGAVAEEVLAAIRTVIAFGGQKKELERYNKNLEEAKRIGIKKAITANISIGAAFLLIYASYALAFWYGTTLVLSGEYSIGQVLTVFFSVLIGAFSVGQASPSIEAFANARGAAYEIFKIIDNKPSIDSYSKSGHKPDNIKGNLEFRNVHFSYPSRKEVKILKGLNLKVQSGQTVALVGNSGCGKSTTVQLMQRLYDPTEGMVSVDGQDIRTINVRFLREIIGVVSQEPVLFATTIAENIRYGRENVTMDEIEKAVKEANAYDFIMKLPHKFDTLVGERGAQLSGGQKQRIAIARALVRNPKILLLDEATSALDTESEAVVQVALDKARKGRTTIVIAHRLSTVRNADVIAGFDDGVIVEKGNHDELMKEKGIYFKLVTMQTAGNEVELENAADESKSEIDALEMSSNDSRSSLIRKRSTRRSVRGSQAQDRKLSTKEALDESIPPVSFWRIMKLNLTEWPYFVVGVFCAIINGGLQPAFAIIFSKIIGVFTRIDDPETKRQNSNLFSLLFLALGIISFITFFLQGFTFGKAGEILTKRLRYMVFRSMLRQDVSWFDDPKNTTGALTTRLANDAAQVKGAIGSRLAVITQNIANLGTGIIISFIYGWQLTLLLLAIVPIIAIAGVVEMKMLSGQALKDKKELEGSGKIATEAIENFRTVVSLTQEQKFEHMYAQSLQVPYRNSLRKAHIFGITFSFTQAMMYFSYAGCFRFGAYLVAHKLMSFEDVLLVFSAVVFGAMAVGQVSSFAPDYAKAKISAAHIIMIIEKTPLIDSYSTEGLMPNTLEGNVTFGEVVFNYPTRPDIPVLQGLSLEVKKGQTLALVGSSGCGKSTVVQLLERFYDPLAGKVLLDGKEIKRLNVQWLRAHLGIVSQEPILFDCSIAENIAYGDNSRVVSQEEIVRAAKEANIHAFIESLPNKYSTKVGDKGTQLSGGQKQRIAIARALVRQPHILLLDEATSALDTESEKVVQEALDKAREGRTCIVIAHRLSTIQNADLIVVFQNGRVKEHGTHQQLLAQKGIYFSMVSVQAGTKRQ
# procedure details: MDR1 transfected LLC-PK1 permeability/efflux, Assay 6
# condition description: pig, LLC-PK1, Assay 6 Pe Ratio, efflux ratio Papp(B-A)/Papp(A-B), MDR1 transfected LLC-PK1
Response field label: string, one of Condition met (efflux ratio at 2 h, 1 μM strictly below 2) or Condition not met.

In [3]: df
Out[3]:
                                   compound  assigned_class
0  [2H]C([2H])([2H])Nc1ncc2ncnc(Nc3ccc(Oc4ccc5c(c4)ncn5C)c(C)c3)c2n1   Condition met

Task: Below 2 on efflux ratio at 2 h, 1 μM? Entry Cc1cc(Nc2ncnc3cnc(N4CC(C(C)(C)O)C4)nc23)ccc1Oc1ccc2c(c1)ncn2C
Output: Condition not met

Task: Item Cc1cc(Nc2ncnc3cnc(-c4cnsc4)nc23)ccc1Oc1ccc2c(c1)ncn2C : efflux ratio at 2 h, 1 μM beneath 2, strictly?
Output: Condition met

Task: Lab log: compare recorded efflux ratio at 2 h, 1 μM with 2; is it strictly lower for Cc1cc(Nc2ncnc3cnc(NCC(F)F)nc23)ccc1Oc1ccc2c(c1)ncn2C ?
Output: Condition not met

Task: Does Cc1cc(Nc2ncnc3cnc(N4CCN(C)[C@H](C)C4)nc23)ccc1Oc1ccc2c(c1)ncn2C have efflux ratio at 2 h, 1 μM strictly under 2?
Output: Condition not met

Task: In plain terms, does Cc1cc(Nc2ncnc3cnc(N(C)C)nc23)ccc1Oc1ccc2scnc2c1 come in under 2 for efflux ratio at 2 h, 1 μM?
Output: Condition met

Task: Please let me know if COc1ncc2ncnc(Nc3ccc(Oc4ccc5csnc5c4)c(C)c3)c2n1 [Example 7, 2,2,2-trifluoroacetate] shows efflux ratio at 2 h, 1 μM below 2.
Output: Condition met

Task: Please check: efflux ratio at 2 h, 1 μM for CNc1ncc2ncnc(Nc3ccc(Oc4ccc5c(c4)ncn5C)c(C)c3)c2n1 , strictly under 2 or not?
Output: Condition met

Task: Criterion: efflux ratio at 2 h, 1 μM strictly below 2. Is it met by Cc1cc(Nc2ncnc3cnc(N4C(C)CCS4(=O)=O)nc23)ccc1Oc1ccc2c(c1)ncn2C.O=C(O)C(F)(F)F (stereo not drawn) ?
Output: Condition not met

Task: Dear colleague, could you confirm whether efflux ratio at 2 h, 1 μM of Cc1cc(Nc2ncnc3cnc(N4CC(CS(C)(=O)=O)C4)nc23)ccc1Oc1ccc2c(c1)ncn2C falls below 2? Thanks.
Output: Condition not met

Task: Hello, I'm reviewing records and need to know if efflux ratio at 2 h, 1 μM of Cc1cc(Nc2ncnc3cnc(N(C)C)nc23)ccc1Oc1ccc2csnc2c1 [Example 49, 2,2,2-trifluoroacetate] is below 2. Could you check?
Output: Condition met

Task: In the record for Cc1cc(Nc2ncnc3cnc(N(C)CC(F)F)nc23)ccc1Oc1ccc2c(c1)ncn2C , is efflux ratio at 2 h, 1 μM less than 2?
Output: Condition met

Task: A record lists Cc1cc(Nc2ncnc3cnc(N(C)CC4CCO4)nc23)ccc1Oc1ccc2c(c1)ncn2C (stereo not drawn) . Is its efflux ratio at 2 h, 1 μM below 2?
Output: Condition met

Task: Quick check: efflux ratio at 2 h, 1 μM of Cc1cc(Nc2ncnc3cnc(-c4ncco4)nc23)ccc1Oc1ccc2c(c1)ncn2C under 2?
Output: Condition not met

Task: efflux ratio at 2 h, 1 μM under 2? Item: Cc1cc(Nc2ncnc3cnc(N4CCOCC4)nc23)ccc1Oc1ccc2scnc2c1.O=C(O)C(F)(F)F
Output: Condition met

Task: Is the reported efflux ratio at 2 h, 1 μM for CNc1ncc2ncnc(Nc3ccc(Oc4ccc5scnc5c4)c(C)c3)c2n1 [Example 50, 2,2,2-trifluoroacetate] strictly below 2?
Output: Condition met

Task: Hello, is efflux ratio at 2 h, 1 μM of the following compound strictly smaller than 2? Cc1cc(Nc2ncnc3cnc(N[C@H]4CCOC4)nc23)ccc1Oc1ccc2c(c1)ncn2C
Output: Condition not met

Task: I wonder whether [2H]c1nc(Nc2ccc(Oc3ccc4c(c3)ncn4C)c(C)c2)c2nc(N3CCOCC3)nc([2H])c2n1 has efflux ratio at 2 h, 1 μM below 2. Can you tell?
Output: Condition met

Task: Quick check: does Cc1cc(Nc2ncnc3cnc(-c4ccccn4)nc23)ccc1Oc1ccc2c(c1)ncn2C have efflux ratio at 2 h, 1 μM under 2?
Output: Condition not met

Task: Decide: efflux ratio at 2 h, 1 μM of Cc1c(Oc2ccc3c(c2)ncn3C)ccc(Nc2ncnc3cnc(N4CCOCC4)nc23)c1F strictly below 2?
Output: Condition met
